Ref: patent US9247750B2

# System: Culex quinquefasciatus
# Procedure text: Insecticide effectiveness in the vapour phase against mosquitoes, impregnated paper unit in 20 m^3 room (Example 9)
# Assay type: in vivo
# Measurement parameters: 5 mg/unit; insect exposure after 4 hours; 24th hour from start of test
Give measured % mortality 24 h for each item. Keep answers brief.
Answers are plain numbers, in %.

Example entries begin here.
INSERT INTO measurements (compound, system_name, quantity_name, result_unit, obs_value) VALUES
  ('CC1(C)[C@H](C=C(Cl)Cl)[C@H]1C(=O)OCc1c(F)c(F)cc(F)c1F [Transfluthrin, transfluthrin]', 'Culex quinquefasciatus', '% mortality 24 h', '%', 100),
  ('C=CC=C[C@@H]1[C@@H](C(=O)OCc2c(F)c(F)cc(F)c2F)C1(C)C (mixture of isomers)', 'Culex quinquefasciatus', '% mortality 24 h', '%', 100),
  ('C=CC=C[C@@H]1[C@@H](C(=O)OCc2c(F)c(F)c(COC)c(F)c2F)C1(C)C (mixture of isomers)', 'Culex quinquefasciatus', '% mortality 24 h', '%', 61),
  ('C=CC=C[C@@H]1[C@@H](C(=O)OCc2coc(Cc3ccccc3)c2)C1(C)C (mixture of isomers)', 'Culex quinquefasciatus', '% mortality 24 h', '%', 23);

// next item, % mortality 24 h requested
Quick check: % mortality 24 h of CC=CC1C(C(=O)OCc2c(F)c(F)c(COC)c(F)c2F)C1(C)C (centres unmarked) ?
100
